Test system: NCI-H460
Test: NCI tumour cell line growth inhibition, 48 h
Activity calls are given as the source filed them. No stated cut-off is given here; in the data, active = GI50 up to about 1.1 µM and inactive = higher.
Parameter GI50: see the listing below.

1) COc1cccc(N2C(=O)C3CC(CC(C)(C)C)c4c([nH]c5ccccc45)C3C2=O)c1 (stereo unspecified) ... 6.47 µM (inactive)

Pending molecule:
The measured GI50 associated with O=C1Sc2ccccc2C(=O)N2CSCC12 (stereo unspecified) reads > 100 µM (inactive)

----------
This section presents molecules with their documented GI50 values.
Tested on: CAKI-1
Assay: NCI tumour cell line growth inhibition, 48 h
Activity calls are given as the source filed them. Cut-off read from the data, not from the text of the source: active = GI50 up to about 1.1 µM and inactive = higher.

Examples with their reported GI50 follow.
1. O=C(O)[C@@H]1NC[C@H]2C(Br)=NO[C@H]21 ... > 100 µM (inactive)
2. CCC1CCC2CCCC(C)N12 (stereo not drawn) ... > 100 µM (inactive)

Pending molecule:
Entry CC(C)/C=C1\CCC(CN2CCCC2)C1=O (stereo not drawn) , GI50 reported as 5.16 µM (inactive)
